Data origin: patent US11553713B2

System: female mosquitoes
Assay: Efficacy by ingestion: feeder test in 6-liter cage, death rate of female mosquitoes
Assay type: in vivo
Settings: active agent at 0.5%, 10% sugar in CPDA; 24 hrs; 24 hrs fasting; sugar feeder not provided
Text: Female mosquitoes were used in the experiment because only female mosquitoes bite humans and animals and transmit infectious diseases. (2R)-3-fluoropropane-1,2-diol (rFOH) was used as the active agent at various concentrations. A sugar feeder containing 10% sucrose, which is a regular mosquito feeder in a laboratory setting, was used as a regular food source in free choice studies. A free choice study allows the pests to select which feeder to feed on when given two or more choices. […]
Please go through the items and note down their Death Rate.
Please reply with the bare figure in % and do not write the unit itself.

Please report the recorded Death Rate for NC(CO)CO [2-Amino-1,3-propanediol] .
16

Please report the recorded Death Rate for OC1CCCCC1O (centres unmarked) [1,2-cyclohexanediol] .
22

Please report the recorded Death Rate for CC(CO)CO [2-Methyl-1,3-propanediol] .
12

Please report the recorded Death Rate for C[C@@H](Cl)C(=O)O [(R)-(+)-2-Chloropropionic acid] .
10

Please report the recorded Death Rate for OCC1(CO)CCC1 [1,1-Bis(hydroxymethyl)cyclobutane] .
50
